- System: rodent lifetime carcinogenesis bioassay, tumor incidence TD50
- ASSAY NOTES: carcinogenic potency in animals, long-term in vivo studies, CPDB compilation (AID 1745844)
- SETTINGS: mouse; strain CD-1 HaM/ICR; males; in feed; site: any site (literature study); lesion: several types; types named in the paper; dosed 73 weeks; study length 94 weeks
Active and inactive are the calls of the source. The rule behind the calls is not given here.

{"CHEMICAL SMILES": "Nc1nc(N)nc(-c2ccccc2)n1", "ASSAYED SYSTEM": "rodent lifetime carcinogenesis bioassay, tumor incidence TD50", "TD50": "439 mg/kg/day (inactive)"}

====

- Test system: rodent lifetime carcinogenesis bioassay, tumor incidence TD50
- ASSAY NOTES: carcinogenic potency in animals, long-term in vivo studies, CPDB compilation (AID 1745844)
- SETTINGS: rat; strain Fischer 344; males; by gavage; site: kidney; lesion: tubule carcinoma + tubular-cell carcinoma, bilateral; dosed 103 weeks; study length 104 weeks

{"CHEMICAL SMILES": "C[C@@H]1Cc2c(Cl)cc(C(=O)N[C@@H](Cc3ccccc3)C(=O)O)c(O)c2C(=O)O1", "TD50": "0.0756 mg/kg/day"}

====

- System: rodent lifetime carcinogenesis bioassay, tumor incidence TD50
- ASSAY NOTES: carcinogenic potency in animals, long-term in vivo studies, CPDB compilation (AID 1745844)
- SETTINGS: mouse; strain Charles River CD1; males; in drinking water; site: lung; lesion: several types; types named in the paper; dosed 52 weeks; study length 52 weeks

{"CHEMICAL SMILES": "CN(C)N", "TD50": "4.33 mg/kg/day"}

====

- Test system: rodent lifetime carcinogenesis bioassay, tumor incidence TD50
- ASSAY NOTES: carcinogenic potency in animals, long-term in vivo studies, CPDB compilation (AID 1745844)
- SETTINGS: hamster; strain Syrian Golden; females; in drinking water; site: pancreas; lesion: angiosarcoma; dosed 67 weeks; study length 67 weeks

{"CHEMICAL SMILES": "CNNC", "TD50": "18.4 mg/kg/day"}

====

- Tested on: rodent lifetime carcinogenesis bioassay, tumor incidence TD50
- ASSAY NOTES: carcinogenic potency in animals, long-term in vivo studies, CPDB compilation (AID 1745844)
- SETTINGS: mouse; strain Charles River CD1; females; inhaled; site: lung; lesion: adenoma; dosed 78 weeks; study length 78 weeks

{"CHEMICAL SMILES": "CCC(C)=NO", "TD50 / mg/kg/day": 5880}

====

- Tested on: rodent lifetime carcinogenesis bioassay, tumor incidence TD50
- ASSAY NOTES: carcinogenic potency in animals, long-term in vivo studies, CPDB compilation (AID 1745844)
- SETTINGS: rat; strain Fischer 344; females; by gavage; site: uterus; lesion: endometrial stromal polyp + endometrial stromal sarcoma; dosed 104 weeks; study length 105 weeks
TEST READOUT: TD50 (mg/kg/day)

{"MOLECULE": "CCCC(Cl)CCCC(Cl)CCC(Cl)CCC(Cl)CCC(Cl)CCCC(Cl)CCC (stereo unspecified)", "TEST READOUT": "TD50", "ENDPOINT RESULT": 394}

====

- Test system: rodent lifetime carcinogenesis bioassay, tumor incidence TD50
- ASSAY NOTES: carcinogenic potency in animals, long-term in vivo studies, CPDB compilation (AID 1745844)
- SETTINGS: rat; strain Donryu; females; in drinking water; site: esophagus; lesion: papilloma; dosed 51 weeks; study length 60 weeks
TEST READOUT: TD50 (mg/kg/day)

{"CHEMICAL SMILES": "CCOC(=O)N(CC)N=O", "ENDPOINT RESULT": 0.473}

Just for reference, PubChem BioAssay AID1745844 is where these values come from.
